# key: entry, value: C0
# PROTOCOL SUMMARY: Initial plasma concentration in mouse at 1 to 2 mg/kg, iv by LC/MS/MS analysis
# Format: ADME, organism-based
Give just the number in ng/mL; leave the unit off.

>>> experimental_result("COc1cc2c(Oc3ccc(NS(=O)(=O)c4cc(F)ccc4F)cc3F)ccnc2cc1OCCCN1CCN(C)CC1")
310

Just so you know, measured C0 for COc1cc2c(Oc3ccc(NS(=O)(=O)c4cc(F)ccc4F)cc3F)ccnc2cc1OCCCN1CCCC(C)C1 (configuration not stated) came out at 216

---

# TARGET SYSTEM: Hepatocyte growth factor receptor (Homo sapiens)
# Sequence (P08581 whole entry): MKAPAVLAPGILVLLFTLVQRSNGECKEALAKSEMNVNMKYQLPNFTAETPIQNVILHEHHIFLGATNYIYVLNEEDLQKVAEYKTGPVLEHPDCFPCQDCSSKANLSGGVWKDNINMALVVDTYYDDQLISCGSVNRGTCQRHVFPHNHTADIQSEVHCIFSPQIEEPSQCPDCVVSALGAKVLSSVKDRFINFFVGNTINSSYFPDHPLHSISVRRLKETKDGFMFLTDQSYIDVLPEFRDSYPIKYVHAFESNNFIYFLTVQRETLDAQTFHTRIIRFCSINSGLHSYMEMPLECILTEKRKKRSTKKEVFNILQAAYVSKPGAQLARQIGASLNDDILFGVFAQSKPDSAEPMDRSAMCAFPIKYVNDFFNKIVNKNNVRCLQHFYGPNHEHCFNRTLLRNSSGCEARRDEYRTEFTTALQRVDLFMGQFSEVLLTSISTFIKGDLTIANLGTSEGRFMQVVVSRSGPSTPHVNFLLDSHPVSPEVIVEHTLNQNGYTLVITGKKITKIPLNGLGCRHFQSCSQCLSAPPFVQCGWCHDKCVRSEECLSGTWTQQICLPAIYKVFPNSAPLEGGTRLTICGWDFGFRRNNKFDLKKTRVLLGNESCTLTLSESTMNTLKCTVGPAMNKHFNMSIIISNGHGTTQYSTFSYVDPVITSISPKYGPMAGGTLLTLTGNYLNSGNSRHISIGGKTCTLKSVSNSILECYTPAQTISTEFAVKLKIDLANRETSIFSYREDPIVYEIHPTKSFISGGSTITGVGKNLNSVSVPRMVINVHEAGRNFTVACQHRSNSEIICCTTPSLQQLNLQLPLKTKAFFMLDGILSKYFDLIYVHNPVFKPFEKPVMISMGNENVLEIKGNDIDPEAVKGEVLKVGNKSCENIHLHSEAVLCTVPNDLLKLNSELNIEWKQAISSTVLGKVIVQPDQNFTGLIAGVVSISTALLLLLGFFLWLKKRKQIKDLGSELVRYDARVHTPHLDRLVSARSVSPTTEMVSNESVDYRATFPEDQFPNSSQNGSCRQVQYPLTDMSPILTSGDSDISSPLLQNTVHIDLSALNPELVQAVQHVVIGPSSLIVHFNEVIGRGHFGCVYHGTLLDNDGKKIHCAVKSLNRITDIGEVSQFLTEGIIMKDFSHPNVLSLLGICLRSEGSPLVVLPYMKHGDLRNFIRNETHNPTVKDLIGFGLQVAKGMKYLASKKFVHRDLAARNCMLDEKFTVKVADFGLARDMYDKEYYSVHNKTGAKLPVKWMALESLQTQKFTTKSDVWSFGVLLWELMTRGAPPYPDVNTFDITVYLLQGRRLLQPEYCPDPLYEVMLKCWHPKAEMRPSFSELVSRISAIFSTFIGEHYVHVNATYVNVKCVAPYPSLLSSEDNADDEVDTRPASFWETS
Threshold 500 nM: IC50 strictly smaller gives Y, otherwise N.

Here are 3 molecules together with their reported answers.
>>> cat("COc1cc2c(Oc3ccc(NS(=O)(=O)c4ccccc4C(F)(F)F)cc3F)ccnc2cc1OCCCN1CCC(C)CC1")
"N"
>>> cat("COc1cc2c(Oc3ccc(NS(=O)(=O)c4cc(F)ccc4F)cc3F)ccnc2cc1OCCCN1CCCC(C)C1 (stereo not given)")
"N"
>>> cat("COc1cc2c(Oc3ccc(NS(=O)(=O)c4ccccc4C(F)(F)F)cc3F)ccnc2cc1OCCCN1CCOCC1")
"Y"

With those in mind, consider the next molecule.
QUERY: # TODO verify IC50 < 500 nM strictly for this molecule: COc1cc2c(Oc3ccc(NS(=O)(=O)c4cc(F)ccc4F)cc3F)ccnc2cc1OCCCN1CCN(C)CC1
RESULT: Y
